# target_of_assay: T1, xPSM (extracellular portion of human PSMA, Tag-xPSM digested with enterokinase, no affinity tags) (human, UniProt Q04609 44-750)
# T1 construct: extracellular domain; also called purified xPSM; soluble xPSM protein
# test_name: phage ELISA on xPSM
Ends that are not written are not given here.
property_name: binding result

>>> result_value("CLSSNSSLC (not fully specified (bridges); cysteine pairing not given here; also: displayed on M13 phage pIII coat protein, Tested as whole phage; also called R3-C1; not shown: pIII coat protein of M13 filamentous bacteriophage (New England Biolabs CX7C library); junction between peptide and pIII) [SEQ ID NO 28 phage (M13 phage displaying CLSSNSSLC)]")
"binds"
>>> result_value("CTPQSSDRC (not fully specified (bridges); cysteine pairing not given here; also: displayed on M13 phage pIII coat protein, Tested as whole phage; not shown: pIII coat protein of M13 filamentous bacteriophage (New England Biolabs CX7C library); junction between peptide and pIII) [SEQ ID NO 107 phage (M13 phage displaying CTPQSSDRC)]")
"binds"
